Ref: the RNAGym collection of RNA variant scans (doi:10.1021/acssynbio.7b00057)

# aptazyme ON/OFF ratio listing for each entry below
B1: Pistol ribozyme (parent)
chain: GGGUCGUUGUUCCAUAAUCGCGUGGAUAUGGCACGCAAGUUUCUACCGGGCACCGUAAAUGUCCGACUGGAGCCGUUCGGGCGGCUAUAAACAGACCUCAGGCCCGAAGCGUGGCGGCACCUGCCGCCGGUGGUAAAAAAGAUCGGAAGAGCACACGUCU

Variants of: B1
METHOD SUMMARY: aptazyme ON/OFF ratio, guanine; higher = stronger switching; co-transcriptional cleavage with and without guanine
The response must contain the number and no unit.

Use these answered entries as a reference point.
1. U7A G9A U10A C12U C13A :: 1.1
2. U7G U8A U10C U11A C12A C13A :: 1.49
3. U8C U10A U11C C12A C13U :: 1.08

Lab book: aptazyme ON/OFF ratio of U7G G9A U10A U11C C13G noted as 1.08

Lab book: aptazyme ON/OFF ratio of U8C G9A C12U C13U noted as 1.25

Lab book: aptazyme ON/OFF ratio of U8A G9U U10G U11C C12G noted as 1.07

Lab book: aptazyme ON/OFF ratio of U7C G9U U10G C12U C13U noted as 1.69

Lab book: aptazyme ON/OFF ratio of G9A U11C C12A C13G noted as 1.35

Lab book: aptazyme ON/OFF ratio of U7C U8G G9C U10C U11G C13G noted as 1.11

Lab book: aptazyme ON/OFF ratio of U7A U8G G9A U11A C13A noted as 1.24

Lab book: aptazyme ON/OFF ratio of U7C U8G G9A U10A U11G C12U C13G noted as 1.25

Lab book: aptazyme ON/OFF ratio of U7A U10C U11G C13G noted as 1.2

Lab book: aptazyme ON/OFF ratio of U10G U11A C13G noted as 1.12

Lab book: aptazyme ON/OFF ratio of U7A U8C U10A U11A C12U noted as 1.18

Lab book: aptazyme ON/OFF ratio of U7A G9U U10A U11A C13G noted as 1.1

Lab book: aptazyme ON/OFF ratio of U7C G9U U10G U11A C13U noted as 1.06

Lab book: aptazyme ON/OFF ratio of U7C U8A G9U U10C U11G noted as 1.06
